// data source = patent EP4786494A1

Molecular target: T1, human FGFR2-his protein (huFGFR2-his) (human)
T1 construct: Extracellular region of human FGFR2 (NP_001138385.1) with a 6xHis tag; also called human FGFR2 extracellular protein
T1 chain: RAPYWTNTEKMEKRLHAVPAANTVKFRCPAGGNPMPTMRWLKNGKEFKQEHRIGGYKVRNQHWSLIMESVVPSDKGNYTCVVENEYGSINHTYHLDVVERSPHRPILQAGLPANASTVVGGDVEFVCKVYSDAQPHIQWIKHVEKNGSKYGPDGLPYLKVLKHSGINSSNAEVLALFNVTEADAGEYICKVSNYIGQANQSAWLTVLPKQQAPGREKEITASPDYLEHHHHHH
Experiment: ELISA screen of hybridoma subclones on human FGFR2-his

{"Binder": "mouse antibody A1B2 (antibody, V domains shown, Antibody as produced by the hybridoma) VH: EVQLQQSGAELVRPGASVKLSCTASGFNIKDYYMHWVKQRPEQGLEWIGRIDPEDGDTEYAPKFQGKATMTADTSSNTAYLQLSSLTSEDTAVYYCTTYYYVSTYEDYWGQGTTLTVSS VL: QIVLTQSPAIMSASLGEEITLTCSASSSVSHMHWYQQKSGTSPKLLIYSTSNLASGVPSRFSGSGSGTFYSLTISSVEAEDAADYYCHHWSSWTFGGGTKLEIK", "binding result": "binds"}
{"Binder": "mouse antibody F3F8 (antibody, V domains shown, Antibody as produced by the hybridoma) VH: QVTLKESGPGILQSSQTLSLTCSFSGFSLSTSGMGVSWIRQPSGKGLEWLAHIYWDNDKRYNPSLKSRLTISKDTSRNQVFLKITSVDTADTATYYCTRSDSSGSFDYWGQGTTLTVSS VL: DIQMTQTTSSLSASLGDRVTISCRASQDISNYLNWYQQKPDGTVKFLIYYTSTLHSGVPSRFSGSGSGTDYSLTISNLEQEDIATYFCQQGNTLPWTFGGGTKLEIK", "binding result": "binds"}
